Below: a set of entries, each annotated with reported composite z-score.
System: Fibrinogen (Alexa647-labelled)
assay.method.text: fibrinogen binders on compound microarrays, profiling panel, artefact control for SMM control-protein annotation, biochemical, small-molecule microarray, 635/667 nm fluorescence (AID 1131);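 further: z-score merges 667 nm fluorescence with per-spot signal-to-noise over triplicate slides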
experimental.conditions: fibrinogen-A647 binding fluorescence, higher = more signal
API doc: respond with a numeric literal and nothing else, no unit.

Worked examples, 3 compounds total:
- compound: "O=C(O)[C@]1(Cc2ccccc2)N=C(c2ccc(OCCCO)cc2)O[C@@H]1c1ccccc1"
  target.desc: "Fibrinogen (Alexa647-labelled)"
  composite z-score: -0.0288
- compound: "CCCC[C@@H]1C[C@H]1[C@@H](NC(=O)c1cccnc1)c1ccc(-c2ccccc2)cc1"
  target.desc: "Fibrinogen (Alexa647-labelled)"
  composite z-score: -2.12
- compound: "CC(C)CN1C(=O)[C@@]2(c3ccc([N+](=O)[O-])cc3)CC(=O)N(CC34CC5CC(CC(C5)C3)C4)[C@@H]2c2ccc(CO)cc21"
  target.desc: "Fibrinogen (Alexa647-labelled)"
  composite z-score: 0.233

// lookup composite z-score | system=Fibrinogen (Alexa647-labelled) | key= C=C(/C(=C/C[C@@H](OC(=O)c1ccncc1)c1ccc(OCCO)cc1)c1cc(C(=O)OC)ccc1OC)C(C)C
0.135

Okay, and COc1c(C)cc(-c2cc3c(c(Cc4ccccc4)n2)[Si](C(C)C)(C(C)C)OC3)cc1C ?
0.0295

Okay, and CCCCC(CC)C(O)C1C=CC2C(=O)N(c3ccccc3)C(=O)C2N1Nc1ccc([N+](=O)[O-])cc1 (stereo not given) ?
1.04

Okay, and Cc1ccc(S[C@]2(C(=O)NCCN3CCOCC3)CC(=O)N(Cc3ccccc3C(F)(F)F)[C@@H]2c2ccc(CO)cc2I)cc1 ?
-1.16

Okay, and Cc1c(NC(=O)/C(C#N)=C/C=C/c2ccc(N(C)C)cc2)c(=O)n(-c2ccccc2)n1C ?
0.449

====

Below: a set of entries, each annotated with reported z-score.
assay.method.text: HepG2 liver cancer cell viability effects, profiling panel, resazurin fluorescence, 24 h, PK04 Diversity Set (AID 1172)
experimental.conditions: higher = more signal
API doc: respond with a numeric literal and nothing else, no unit.

- cpd.smiles: "C[C@@H]1ON(c2ccc(C(=O)OC(C)(C)C)cc2)[C@H](c2ccc(Br)cc2)[C@H]1C(=O)N1C(=O)OC[C@H]1Cc1ccccc1"
  endpoint.label: "z-score"
  value: 0.318

Could you tell me which z-score is on file for O=C(CCCCCCC(=O)Nc1ccccc1)N/N=C/c1ccccc1 ?
0.327

Okay, and CC(C)C(=C=CC[C@H](O)c1ccc(OCCO)cc1)C[C@H](O)c1cc(Cl)cc(Cl)c1O ?
0.918

Okay, and C=CC[C@H](OC(=O)Nc1ccc(OC)cc1)c1ccc(O)c2ccccc12 ?
-0.878

====

Below: a set of entries, each annotated with reported z-score.
assay.method.text: basal RPMI8226 viability, no added stimulus, profiling panel, cell-based, calcein-AM fluorescence, 48 h, PK04 Diversity Set (AID 1166);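 further: cells grown under basal conditions without added stimulus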
experimental.conditions: RPMI8226 myeloma viability, higher = more signal
API doc: respond with a numeric literal and nothing else, no unit.

- cpd.smiles: "C=CC[C@]12N=C(c3ccc(OCCCO)cc3)O[C@H]1c1ccccc1N(C)C2=O"
  z-score: -3.83
- cpd.smiles: "Cc1ccc(S[C@]2(C(=O)NC3CC3)CC(=O)N(Cc3ccccc3Cl)[C@@H]2c2ccc(CO)cc2I)cc1"
  z-score: -2.05

Now take the following compound into account.
Could you tell me which z-score is on file for CC(=O)N1Cc2ccccc2C[C@]2(N=C(c3ccc(OCCCO)cc3)O[C@@H]2c2ccccc2)C1=O ?
-3.5

====

Tested on: XIP peptide (Xip251-270)
assay.method.text: small-molecule binders of XIP peptide, primary screen, biochemical, small-molecule microarray, fluorescence 635/667 nm, 0.5 µg/mL protein (AID 1183)
experimental.conditions: small-molecule microarray binding, fluorescence 635 nm; higher = more signal
Lab note: compare composite z-score against 0.4. Equal or greater, write True. Smaller, write False.

Given COc1c(C)cc(-c2cc3c(c(-c4ccccc4)n2)[Si](C(C)C)(C(C)C)OC3)cc1C , state whether its composite z-score is at least 0.4.
False

Okay, and C[C@]1(C(=O)O)c2ccccc2C(=O)N(Cc2ccccc2)[C@H]1c1ccc(CO)cc1 ?
True

Okay, and CC(C)CCC[C@@H](C)[C@H]1CC[C@@]2(C)C3=C(CC[C@]12C)[C@@]1(C)CC[C@H](OC(=O)c2ccc(Br)cc2)C(C)(C)C1CC3 (stereo partly drawn) ?
False

Okay, and COCCOC(=O)N1C(=O)[C@@]2(c3cc(C#CC4(O)CCCCCC4)ccc31)[C@H](c1ccccc1OCCO)N1[C@H](c3ccccc3)[C@H](c3ccccc3)OC(=O)[C@H]1[C@@H]2C(N)=O ?
True

Okay, and CC(C)(C)OC(=O)CC[C@]1(C(=O)NCCN2CCOCC2)N=C(c2ccc(OCCCO)cc2)O[C@H]1c1ccccc1 ?
True

Okay, and CC=CC(O)C1C=CC2C(=O)N(c3ccccc3)C(=O)C2N1Nc1ccc([N+](=O)[O-])cc1 (stereo not drawn) ?
False

Okay, and O=C(CS)NCCCCCCNC(=O)[C@@H]1C[C@@H]2C(=O)N3CCC[C@H]3C(=O)N2[C@@H]1c1cccc(OCCO)c1 ?
True

Okay, and NCCCCCCNC(=O)[C@@H]1C[C@@H]2C(=O)N3CCC[C@H]3C(=O)N2[C@@H]1c1ccc(O)cc1 ?
True

====

target.desc: Fibroblast growth factor 2 (Homo sapiens) (UniProt P09038)
Sequence (P09038 whole entry, looked up): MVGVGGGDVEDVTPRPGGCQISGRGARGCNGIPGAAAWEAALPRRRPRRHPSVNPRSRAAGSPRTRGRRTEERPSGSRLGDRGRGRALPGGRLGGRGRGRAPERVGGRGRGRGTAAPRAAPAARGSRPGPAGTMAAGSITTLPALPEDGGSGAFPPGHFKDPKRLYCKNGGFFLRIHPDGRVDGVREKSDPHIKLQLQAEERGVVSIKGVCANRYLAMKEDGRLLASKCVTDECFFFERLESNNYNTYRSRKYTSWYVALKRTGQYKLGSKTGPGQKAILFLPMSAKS
assay.method.text: FGF2 binders on small-molecule microarrays, primary screen, biochemical, small-molecule microarray, 635/667 nm fluorescence (AID 1133)
experimental.conditions: small-molecule microarray binding, FGF2, fluorescence 635/667; higher = more signal
endpoint.label: composite z-score
API doc: respond with a numeric literal and nothing else, no unit.

- compound: "C=CC1c2cc(O)c(OC)cc2CCN1Cc1sc2ccccc2c1Cl (stereo not drawn)"
  target.desc: "Fibroblast growth factor 2 (Homo sapiens) (UniProt P09038)"
  endpoint.label: "composite z-score"
  value: -0.416
- compound: "CCOC(=O)C1=CC[C@@H](c2ccccc2)N(S(=O)(=O)c2ccc(C)cc2)C1"
  target.desc: "Fibroblast growth factor 2 (Homo sapiens) (UniProt P09038)"
  endpoint.label: "composite z-score"
  value: -0.103
- compound: "CC(C)N1C(=O)[C@@]2(c3ccc([N+](=O)[O-])cc3)CC(=O)N(C3CCCCC3)[C@@H]2c2ccc(CO)cc21"
  target.desc: "Fibroblast growth factor 2 (Homo sapiens) (UniProt P09038)"
  endpoint.label: "composite z-score"
  value: 0.356
- compound: "CCCCC(=C=CC[C@@H](O)c1ccc(OCCO)cc1)C[C@@H](O)COCc1ccccc1"
  target.desc: "Fibroblast growth factor 2 (Homo sapiens) (UniProt P09038)"
  endpoint.label: "composite z-score"
  value: 0.567
- compound: "CC(=O)n1cc(C(O)C2C=CC3C(=O)N(Cc4ccccc4)C(=O)C3N2n2cnnc2)c2ccccc21 (stereo not drawn)"
  target.desc: "Fibroblast growth factor 2 (Homo sapiens) (UniProt P09038)"
  endpoint.label: "composite z-score"
  value: -0.465
- compound: "COc1cc(CO)cc(I)c1O[C@H]1C=C(C(=O)NCCO)C[C@@H](NCc2ccccc2F)[C@@H]1O"
  target.desc: "Fibroblast growth factor 2 (Homo sapiens) (UniProt P09038)"
  endpoint.label: "composite z-score"
  value: 0.974

Could you tell me which composite z-score is on file for [N-]=[N+]=Nc1ccccc1[C@@H]1OC(c2ccc(OCCCO)cc2)=N[C@]1(CCS(=O)(=O)c1ccccc1)C(=O)NCCN1CCOCC1 ?
-0.29

Okay, and C=CCOC(=O)[C@@H]1[C@H]2C(=O)O[C@H](c3ccccc3)[C@H](c3ccccc3)N2[C@H](c2ccc(OCCOC(=O)[C@H]3C[C@H]4C(=O)N[C@@H](CCCCN(C)C)C(=O)N4[C@H]3c3cccc(OCCO)c3)cc2)[C@@]12C(=O)Nc1ccc(I)cc12 ?
1.59

====

target.desc: Dickkopf-related protein 1 (Homo sapiens)
assay.method.text: DKK1 binders on small-molecule microarrays, primary screen, biochemical, small-molecule microarray, 635 nm fluorescence scan (AID 1106);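 further: score merges emission near 667 nm with signal to noise over three replicate slides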
experimental.conditions: DKK1 binding, higher = more signal
Below: a set of entries, each annotated with reported composite z-score.
API doc: respond with a numeric literal and nothing else, no unit.

- cpd.smiles: "CCOC(=O)[C@H]1C/C=C/C[C@H](C(=O)OCC)C(=O)O[C@H]2[C@@H](OC)O[C@H](CO)[C@@H](OC(=O)CCc3ccccc3)[C@@H]2OC1=O"
  composite z-score: -0.315
- cpd.smiles: "CO[C@H]1O[C@H](CO)[C@@H](OC(=O)Nc2ccccc2-c2ccccc2)[C@H](OC(=O)Nc2ccc3c(c2)OCO3)[C@@H]1OC(=O)Nc1ccc2c(c1)OCO2"
  composite z-score: 0.279

Could you tell me which composite z-score is on file for COC(=O)[C@@]1(Cc2ccc(F)cc2)[C@H]2c3cc(C(=O)N4CCCC4)n(CCF)c3C[C@H]2CN1C(=O)c1ccccc1 ?
0.555
